# ASSAY TARGET: T1, corticotropin releasing factor 2 receptor
# T1 sequence (Q13324 whole entry, species assumed, looked up): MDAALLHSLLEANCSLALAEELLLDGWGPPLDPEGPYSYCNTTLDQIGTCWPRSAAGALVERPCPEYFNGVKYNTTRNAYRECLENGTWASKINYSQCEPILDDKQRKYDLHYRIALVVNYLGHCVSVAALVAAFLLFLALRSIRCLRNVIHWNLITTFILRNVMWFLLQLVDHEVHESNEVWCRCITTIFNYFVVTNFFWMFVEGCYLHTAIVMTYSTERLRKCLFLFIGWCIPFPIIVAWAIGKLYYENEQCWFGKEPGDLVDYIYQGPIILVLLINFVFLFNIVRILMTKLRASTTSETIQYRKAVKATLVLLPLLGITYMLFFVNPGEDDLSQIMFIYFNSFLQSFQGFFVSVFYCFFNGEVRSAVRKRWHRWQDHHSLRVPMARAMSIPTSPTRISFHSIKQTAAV
# ASSAY PROTOCOL: cell-based or functional assay
Ends that are not written are not given here.

{"columns": ["BINDER", "UNITS TEXT", "RESULT OPERATOR", "CRF2R EC50"],
 "data": [
  ["IVLSLDVPIGLLQILLEQAAAAREQATTNARILARV-NH2 [SEQ ID NO 134]", "nM", ">", 100],
  ["SQEPPISLDLPIQLLREVLEMTKADQLAQQAHSNRKLLDIA-NH2 [SEQ ID NO 100]", "nM", "=", 100],
  ["ZGPPISIDLPLLLLRKMIEIEKQEKEKQQAANNRLLLDTI (C-terminal amide) [SEQ ID NO 188]", "nM", "=", 14.6],
  ["SQEPPISLDLTFGLLREVLEMTKADQLAQQAHSNRKLLDIA-NH2 [SEQ ID NO 88]", "nM", "=", 100],
  ["ZGPPISIDLPTLLLRKMIEIEKQEKEKQQAANNRLLLDTI (C-terminal amide) [SEQ ID NO 51]", "nM", "=", 20.6],
  ["IVLSLDVPIGLLQILLEQTRADAAREQATTNARILARV-NH2 [SEQ ID NO 126]", "nM", "=", 13]
]}
